- STUDY SYSTEM: T1, Calpain-1
- T1 chain 1: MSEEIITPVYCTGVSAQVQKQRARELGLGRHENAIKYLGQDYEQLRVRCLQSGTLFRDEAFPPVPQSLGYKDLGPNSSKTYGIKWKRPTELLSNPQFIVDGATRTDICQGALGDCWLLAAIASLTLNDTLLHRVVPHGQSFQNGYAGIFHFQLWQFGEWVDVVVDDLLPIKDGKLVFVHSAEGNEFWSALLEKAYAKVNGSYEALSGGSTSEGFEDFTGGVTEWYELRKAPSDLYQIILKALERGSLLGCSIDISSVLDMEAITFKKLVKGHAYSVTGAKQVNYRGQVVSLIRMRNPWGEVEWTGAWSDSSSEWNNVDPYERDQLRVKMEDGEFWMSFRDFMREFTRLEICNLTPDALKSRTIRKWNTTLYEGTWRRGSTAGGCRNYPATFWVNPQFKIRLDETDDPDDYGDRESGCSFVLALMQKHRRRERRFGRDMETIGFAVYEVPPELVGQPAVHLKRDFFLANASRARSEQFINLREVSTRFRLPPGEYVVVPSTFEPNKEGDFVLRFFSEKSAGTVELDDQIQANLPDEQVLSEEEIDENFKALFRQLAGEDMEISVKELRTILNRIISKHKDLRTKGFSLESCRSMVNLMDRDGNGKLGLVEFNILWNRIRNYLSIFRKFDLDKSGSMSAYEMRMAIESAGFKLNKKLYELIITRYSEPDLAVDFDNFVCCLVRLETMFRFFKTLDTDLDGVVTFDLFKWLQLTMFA
- T1 chain 2: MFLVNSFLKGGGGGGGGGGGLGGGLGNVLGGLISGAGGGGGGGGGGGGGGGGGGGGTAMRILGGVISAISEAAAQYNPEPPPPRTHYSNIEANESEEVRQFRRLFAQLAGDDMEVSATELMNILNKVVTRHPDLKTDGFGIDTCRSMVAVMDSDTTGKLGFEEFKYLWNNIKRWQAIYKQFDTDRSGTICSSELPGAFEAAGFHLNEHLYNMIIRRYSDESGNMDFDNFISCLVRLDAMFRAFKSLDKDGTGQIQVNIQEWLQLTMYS
- MEASUREMENT DESCRIPTION: fluorescence-based enzyme inhibition assay
Positions of bridges follow the written chain, without caps; N, C: chain ends. Non-standard residues stand in square brackets, D forms with d. No end group written: not given here. alpha,alpha'‑meta‑xylylene = alpha,alpha'-meta-xylylene linker (from a,a'-dibromo-meta-xylene) bridging two cysteines via bis-thioether; βAla = NCCC(=O)O
I'd appreciate it if you could supply Ki values for the items below.
Field: numeric (µM). Do not append units.

Task item: Quick one: give measured Ki for IPPKYRCLLAC (linker 7-11 via alpha,alpha'‑meta‑xylylene) [IPPKYRCLLAC (SEQ ID NO:66)]
Reply: 7.5

Task item: Quick one: give measured Ki for IPPKYCEQLC (linker 6-10 via alpha,alpha'‑meta‑xylylene, also called compound (Ia)) [IPPKYCEQLC (SEQ ID NO:85)]
Reply: 11

Task item: Quick one: give measured Ki for EVTIPPKYCELLC (linker 9-13 via alpha,alpha'‑meta‑xylylene) [EVTIPPKYCELLC (SEQ ID NO:69)]
Reply: 5.3

Task item: Quick one: give measured Ki for [βAla]AIPPKYCELLC (linker 8-12 via alpha,alpha'‑meta‑xylylene) [(b-Ala)AIPPKYCELLC (SEQ ID NO:70)]
Reply: 10.7

Task item: Quick one: give measured Ki for DPPKYCELLC (linker 6-10 via alpha,alpha'‑meta‑xylylene) [DPPKYCELLC (SEQ ID NO:71)]
Reply: 27.6

Task item: Quick one: give measured Ki for LPPKYCELLC (linker 6-10 via alpha,alpha'‑meta‑xylylene) [LPPKYCELLC (SEQ ID NO:74)]
Reply: 11
